Values compiled from patent US10086085B2.

tested on: N87 (human gastric carcinoma derived from metastatic liver site); test: Cytotoxicity assay for payloads (MTS), N87 cells; type: cell-based; conditions: Homo sapiens, 96 h, read-out: N87 IC50 (nM)
observationType: IC50 (nM)
Answers are plain numbers, in nM.

[ask] Record request: IC50 value, item CN(C)CCNC(=O)Oc1cc2c(c3ccccc13)[C@H](CCl)CN2C(=O)c1ccc(C(=O)N2C[C@@H](CCl)c3c2cc(O)c2ccccc32)s1
[reply] 0.003
